// data source = patent US9120771B2

target: human norepinephrine transporter (Homo sapiens (Human), UniProt P23975); test: hNET binding assay ([3H]Nisoxetine)
Sequence (P23975 whole entry): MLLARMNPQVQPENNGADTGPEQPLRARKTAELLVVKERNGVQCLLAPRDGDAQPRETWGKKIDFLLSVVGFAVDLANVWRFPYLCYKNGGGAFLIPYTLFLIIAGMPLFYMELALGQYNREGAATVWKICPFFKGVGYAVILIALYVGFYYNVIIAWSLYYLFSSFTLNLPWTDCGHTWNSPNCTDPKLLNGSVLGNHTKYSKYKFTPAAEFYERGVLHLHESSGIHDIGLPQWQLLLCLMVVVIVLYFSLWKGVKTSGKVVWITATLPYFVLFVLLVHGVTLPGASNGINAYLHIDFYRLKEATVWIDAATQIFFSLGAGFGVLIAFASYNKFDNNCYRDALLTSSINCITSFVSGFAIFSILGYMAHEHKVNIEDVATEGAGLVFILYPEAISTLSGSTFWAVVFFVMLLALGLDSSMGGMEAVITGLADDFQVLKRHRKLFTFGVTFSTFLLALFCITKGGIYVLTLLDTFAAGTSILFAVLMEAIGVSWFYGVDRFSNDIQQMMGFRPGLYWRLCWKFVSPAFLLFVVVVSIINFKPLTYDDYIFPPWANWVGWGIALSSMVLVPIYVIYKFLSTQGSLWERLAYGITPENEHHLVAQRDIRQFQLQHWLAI
The following compounds are shown together with reported IC50 values.

[
  {
    "compound": "Cc1ccc(OC(c2ccc(Cl)c(Cl)c2)C2CNC2)cc1.Cl (centres unmarked) [KHG26776, hydrochloride]",
    "IC50, nM": 27.1
  },
  {
    "compound": "CCOC(c1ccc(Cl)c(Cl)c1)C1CNC1.Cl (centres unmarked) [KHG26757, hydrochloride]",
    "IC50, nM": 153
  }
]

* * *

The following compounds are shown together with reported log10 of IC50 values.
target: human serotonin transporter (Homo sapiens (Human)); test: hSERT binding assay ([3H]Imipramine); details: membrane from HEK293 cells, 2 nM [3H]Imipramine;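 further: displacement of radiolabeled imipramine from the transporter, incubated 30 min at 27 °C in Tris-HCl pH 7.4 with NaCl and KCl, bound radioactivity counted after filtration, nonspecific binding defined with 200 uM imipramine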
Sequence (P31645 whole entry): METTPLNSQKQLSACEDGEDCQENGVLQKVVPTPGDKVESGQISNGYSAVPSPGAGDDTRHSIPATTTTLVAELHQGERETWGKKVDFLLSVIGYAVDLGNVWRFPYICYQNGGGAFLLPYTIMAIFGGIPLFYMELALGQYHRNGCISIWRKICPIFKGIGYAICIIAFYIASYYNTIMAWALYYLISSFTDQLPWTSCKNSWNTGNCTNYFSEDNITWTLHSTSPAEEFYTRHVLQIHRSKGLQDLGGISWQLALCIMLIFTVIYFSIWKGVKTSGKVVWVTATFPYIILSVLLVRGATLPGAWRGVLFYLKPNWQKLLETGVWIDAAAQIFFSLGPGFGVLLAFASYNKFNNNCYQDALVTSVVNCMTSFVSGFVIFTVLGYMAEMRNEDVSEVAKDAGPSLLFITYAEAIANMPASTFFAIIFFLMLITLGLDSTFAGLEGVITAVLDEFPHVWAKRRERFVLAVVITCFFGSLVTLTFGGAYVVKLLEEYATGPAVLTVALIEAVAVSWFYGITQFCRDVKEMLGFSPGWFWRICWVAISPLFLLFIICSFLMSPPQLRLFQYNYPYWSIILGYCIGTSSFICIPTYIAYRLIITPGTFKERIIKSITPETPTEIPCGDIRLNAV
Where a name gives a salt, the structure may show the parent alone.
readout.label: log10 of IC50 (log10 of the value in nM)

[
  {
    "compound": "Cl.O=C(OC(c1ccc(Cl)c(Cl)c1)C1CNC1)c1ccccc1 (centres unmarked) [KHG26773, hydrochloride]",
    "test.result": 1.84
  },
  {
    "compound": "CCOC(c1ccc(Cl)cc1)C1CNC1.Cl (centres unmarked) [KHG26754, hydrochloride]",
    "test.result": 2.08
  },
  {
    "compound": "Clc1ccc(C(Oc2ccccc2)C2CNC2)cc1Cl (centres unmarked) [KHG26767, hydrochloride]",
    "test.result": 0.63
  },
  {
    "compound": "Cl.Clc1ccc(C(OCc2ccccc2)C2CNC2)cc1Cl (centres unmarked) [KHG26770, hydrochloride]",
    "test.result": 0.89
  },
  {
    "compound": "Cl.O=C(OC(c1ccc(Cl)cc1)C1CNC1)c1ccccc1 (centres unmarked) [KHG26772, hydrochloride]",
    "test.result": 2.55
  },
  {
    "compound": "Cl.c1ccc(COC(c2ccccc2)C2CNC2)cc1 (centres unmarked) [KHG26768, hydrochloride]",
    "test.result": 1.92
  },
  {
    "compound": "COC(c1ccc(Cl)c(Cl)c1)C1CNC1.Cl (centres unmarked) [KHG26756, hydrochloride]",
    "test.result": 2.43
  },
  {
    "compound": "Cc1cccc(OC(c2ccc(Cl)c(Cl)c2)C2CNC2)c1.Cl (centres unmarked) [KHG26775, hydrochloride]",
    "test.result": 1.30
  },
  {
    "compound": "Cc1ccc(OC(c2ccc(Cl)c(Cl)c2)C2CNC2)cc1.Cl (centres unmarked) [KHG26776, hydrochloride]",
    "test.result": 0.75
  },
  {
    "compound": "Cl.Clc1ccc(C(OCc2ccccc2)C2CNC2)cc1 (centres unmarked) [KHG26769, hydrochloride]",
    "test.result": 1.33
  },
  {
    "compound": "COC(c1ccc(Cl)cc1)C1CNC1.Cl (centres unmarked) [KHG26753, hydrochloride]",
    "test.result": 1.63
  }
]

* * *

target: human serotonin transporter (Homo sapiens (Human)); test: hSERT reuptake assay (HEK-hSERT, FDSS6000); format: cell-based; details: HEK-hSERT cells; Table 4
pIC50: −log10 of the molar value. Structures can show the parent of a compound that is named as a salt.
The following compounds are shown together with reported pIC50 values.

[
  {
    "compound": "Cl.Clc1ccc(C(OC2CCC2)C2CNC2)cc1Cl (stereo not drawn) [KHG27253, hydrochloride]",
    "pIC50": 7.59
  },
  {
    "compound": "Clc1ccc(C(OC2CCCC2)C2CNC2)cc1Cl (stereo not drawn) [KHG27254, hydrochloride]",
    "pIC50": 7.59
  },
  {
    "compound": "CCCC(Oc1ccc2ccccc2c1)C1CNC1.Cl (stereo not drawn) [KHG27284, hydrochloride]",
    "pIC50": 8.07
  },
  {
    "compound": "CC(C)(C)OC(c1ccc(Cl)c(Cl)c1)C1CNC1.Cl (stereo not drawn) [KHG27252, hydrochloride]",
    "pIC50": 7.06
  },
  {
    "compound": "CN1CC(C(Oc2ccccc2)c2ccc3ccccc3c2)C1 (stereo not drawn) [KHG26907]",
    "pIC50": 6.69
  },
  {
    "compound": "Cl.Clc1ccc(C(OC2CCCCC2)C2CNC2)cc1Cl (stereo not drawn) [KHG27255, hydrochloride]",
    "pIC50": 7.23
  }
]
